# System: crabgrass
# protocol notes: Test B pre/postemergence crabgrass
# Type: in vivo, Digitaria sanguinalis
# condition: Preemergence, Rate 500 g/ha; scale 0 (no effect) to 10 (complete control)
recorded endpoint: Crabgrass plant response rating
One number for each entry.

Below, 4 molecules whose answers are already recorded.
Cc1ccc(N(C(=O)n2oc(=O)n(-c3ccccc3C)c2=O)C(C)C)cc1	10
CCN(Cc1ccccc1)C(=O)n1oc(=O)n(-c2c(C)cccc2C)c1=O	0
CC(C)N(C(=O)n1oc(=O)n(-c2c(Cl)cccc2Cl)c1=O)c1ccc(F)cc1	10
CCCn1c(=O)on(C(=O)N(c2ccccc2)C(C)C)c1=O	10

Answer for every listed entry: what is its Crabgrass plant response rating? The entries follow.
1. Cc1ccccc1-n1c(=O)on(C(=O)N(c2ccc(F)c(F)c2)C(C)C)c1=O
2. Cc1cc(C)c(-n2c(=O)on(C(=O)N(c3ccc(Cl)cc3)C(C)C)c2=O)c(C)c1

7
8
